# tested.system: F508delCFTR (Homo sapiens, UniProt P13569, DEL508-508)
# Construct: expressed in transfected cells; host or cells: CFBE41o- human lung-derived epithelial cells (CFBE4lo-F508delCFTR-HRP), doxycycline-inducible
# Sequence (P13569 with tags, fused parts or gaps DEL508-508): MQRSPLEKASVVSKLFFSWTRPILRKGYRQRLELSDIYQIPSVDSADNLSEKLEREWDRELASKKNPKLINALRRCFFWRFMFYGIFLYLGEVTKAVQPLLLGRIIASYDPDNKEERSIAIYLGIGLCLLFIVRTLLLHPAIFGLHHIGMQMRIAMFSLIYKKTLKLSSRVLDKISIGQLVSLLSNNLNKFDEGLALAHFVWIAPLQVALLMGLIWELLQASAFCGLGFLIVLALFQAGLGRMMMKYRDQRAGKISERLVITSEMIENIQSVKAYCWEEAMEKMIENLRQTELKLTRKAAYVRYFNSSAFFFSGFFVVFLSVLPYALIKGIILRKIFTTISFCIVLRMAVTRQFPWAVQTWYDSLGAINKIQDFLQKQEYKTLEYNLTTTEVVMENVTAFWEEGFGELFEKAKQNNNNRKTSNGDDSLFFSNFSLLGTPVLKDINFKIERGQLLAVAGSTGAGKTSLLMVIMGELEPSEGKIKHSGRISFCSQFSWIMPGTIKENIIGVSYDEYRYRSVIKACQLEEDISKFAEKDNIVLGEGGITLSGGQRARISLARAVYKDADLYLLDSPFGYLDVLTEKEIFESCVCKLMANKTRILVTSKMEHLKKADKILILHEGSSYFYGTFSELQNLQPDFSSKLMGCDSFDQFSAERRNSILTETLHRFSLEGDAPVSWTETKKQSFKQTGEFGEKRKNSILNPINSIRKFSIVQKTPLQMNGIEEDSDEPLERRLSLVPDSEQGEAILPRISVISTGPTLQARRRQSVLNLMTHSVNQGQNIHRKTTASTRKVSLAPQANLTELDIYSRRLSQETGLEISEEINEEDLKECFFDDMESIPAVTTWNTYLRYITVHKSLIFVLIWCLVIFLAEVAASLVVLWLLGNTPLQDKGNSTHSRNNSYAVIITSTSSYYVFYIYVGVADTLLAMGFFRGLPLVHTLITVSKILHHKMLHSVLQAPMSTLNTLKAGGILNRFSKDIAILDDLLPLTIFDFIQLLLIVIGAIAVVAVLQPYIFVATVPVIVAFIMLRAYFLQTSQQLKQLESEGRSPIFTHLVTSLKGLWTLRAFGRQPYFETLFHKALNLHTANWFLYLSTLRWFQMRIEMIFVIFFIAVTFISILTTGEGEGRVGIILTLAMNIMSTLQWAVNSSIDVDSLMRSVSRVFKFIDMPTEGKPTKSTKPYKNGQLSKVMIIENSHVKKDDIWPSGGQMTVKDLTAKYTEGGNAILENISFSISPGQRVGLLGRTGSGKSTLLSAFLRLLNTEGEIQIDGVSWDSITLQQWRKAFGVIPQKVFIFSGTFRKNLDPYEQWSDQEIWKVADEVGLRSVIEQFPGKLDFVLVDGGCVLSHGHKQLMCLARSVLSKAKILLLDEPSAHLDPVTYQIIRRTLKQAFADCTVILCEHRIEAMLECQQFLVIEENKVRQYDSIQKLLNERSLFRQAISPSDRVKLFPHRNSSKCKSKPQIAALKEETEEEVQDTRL
# test.method.notes: Cell Surface Expression-Horse Radish Peroxidase (CSE-HRP) Assay
# Type: cell-based
# particulars: with co-corrector (2 μM of 3-[(2R,4R)-4-({[1-(2,2-difluoro-1,3-benzodioxol-5-yl)cyclopropyl]carbonyl}amino)-7-methoxy-3,4-dihydro-2H-chromen-2-yl]benzoic acid); read-out: EC50 (with co-corrector)
pEC50: −log10 of the molar value.
Listed below: pEC50 values for each entry.

# get_value(readout='pEC50', item= COc1cc(C(F)(F)F)ccc1CN[C@H]1[C@H](C(C)(C)C)[C@@H](C(=O)O)N(C(=O)[C@@H]2CCCC(F)(F)C2)[C@H]1c1ccccc1 )
> 6.00

----------
# tested.system: F508delCFTR (Homo sapiens, UniProt P13569, DEL508-508)
# Construct: expressed in transfected cells; host or cells: CFBE41o- human lung-derived epithelial cells (CFBE4lo-F508delCFTR-HRP), doxycycline-inducible
# test.method.notes: Cell Surface Expression-Horse Radish Peroxidase (CSE-HRP) Assay;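 for Maximum % activity (with co-corrector): co-corrector and positive control are both the same reference corrector at 2 µM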
# Type: cell-based
# particulars: with co-corrector (2 μM); maximum at any tested concentration, normalized to on-plate positive control
assay.readout: Maximum % activity (with co-corrector)

See these solved cases before continuing.
COc1ccc(C(F)(F)F)cc1CN[C@H]1[C@H](C(C)(C)C)[C@@H](C(=O)O)N(C(=O)C2CCC(C)C2)[C@H]1c1ccccc1 (stereo partly drawn) = +++ (≥350)
CC(C)(C)[C@H]1[C@H](NCc2ccc(F)cc2OCC2CC2)[C@H](c2ccccc2)N(C(=O)C2CCCCC2)[C@@H]1C(=O)O = ++ (≥150 and <350)
COc1ccc(C2(C)CCC2)cc1CN[C@H]1[C@H](C(C)(C)C)[C@@H](C(=O)O)N(C(=O)[C@H]2CCCCO2)[C@H]1c1cccnc1OC = +++ (≥350)
CC(C)(C)[C@H]1[C@H](NCc2ccc3c(c2)CCO3)[C@H](c2ccccc2)N(C(=O)C2CCCCC2)[C@@H]1C(=O)O = ++ (≥150 and <350)

Which Maximum % activity (with co-corrector) value is on record for COc1ncc(C2CCC2)cc1CN[C@H]1[C@H](C(C)(C)C)[C@@H](C(=O)O)N(C(=O)C2CCCC(C(F)(F)F)C2)[C@H]1c1ccccc1 (stereo partly drawn) ?
+++ (≥350)

Consider the compound COc1ncc(C2CCC2)cc1CN[C@H]1[C@H](C(C)(C)C)[C@@H](C(=O)O)N(C(=O)C2C3CCCC32)[C@H]1c1cccnc1OC (stereo partly drawn) and give its measured Maximum % activity (with co-corrector).
+++ (≥350)

----------
# tested.system: F508delCFTR (Homo sapiens, UniProt P13569, DEL508-508)
# Construct: expressed in transfected cells; host or cells: CFBE41o- human lung-derived epithelial cells (CFBE4lo-F508delCFTR-HRP), doxycycline-inducible
# test.method.notes: Cell Surface Expression-Horse Radish Peroxidase (CSE-HRP) Assay
# Format: cell-based
# particulars: with co-corrector (2 μM of 3-[(2R,4R)-4-({[1-(2,2-difluoro-1,3-benzodioxol-5-yl)cyclopropyl]carbonyl}amino)-7-methoxy-3,4-dihydro-2H-chromen-2-yl]benzoic acid); read-out: EC50 (with co-corrector)
Some compounds, each annotated with its measured EC50.

COc1cc2ccccc2cc1CN[C@H]1[C@H](C(C)(C)C)[C@@H](C(=O)O)N(C(=O)C2CCCCC2)[C@H]1c1ccccc1 = < 1 µM
COc1ccc(C(C)(C)C)cc1CN[C@H]1[C@H](C(C)(C)C)[C@@H](C(=O)O)N(C(=O)OC(C)C)[C@H]1c1cccc(Cl)c1 = < 1 µM
COc1ccc(C23CC(C2)C3)cc1CN[C@H]1[C@H](C(C)(C)C)[C@@H](C(=O)O)N(C(=O)[C@@H]2CCC[C@@H](OC)C2)[C@H]1c1ccccc1 = 1 to 10 µM
COc1ncc(C(C)(C)C)cc1CN[C@H]1[C@H](C(C)(C)C)[C@@H](C(=O)O)N(C(=O)[C@@H]2CCCCO2)[C@H]1c1cccnc1N(C)C = 1 to 10 µM
COc1cc2c(cc1CN[C@H]1[C@H](C(C)(C)C)[C@@H](C(=O)O)N(C(=O)OC(C)C)[C@H]1c1cccnc1N(C)C)CCC2 = 1 to 10 µM
COc1c(C#N)c(N[C@H]2[C@H](C(C)(C)C)[C@@H](C(=O)O)N(C(=O)C3CCCCC3)[C@H]2c2ccccc2)nc2ccccc12 = 1 to 10 µM
COc1ccc(C(C)(C)C)cc1CN[C@H]1[C@H](C(C)(C)C)[C@@H](C(=O)O)N(C(=O)[C@@H](OC)c2ccc(F)c(F)c2)[C@H]1c1ccccc1 = 1 to 10 µM
COc1ccc(C(C)(C)C)cc1CN[C@H]1[C@H](C(C)(C)C)[C@@H](C(=O)O)N(C(=O)C2CCC(C)(C)C2)[C@H]1c1ccccc1 (stereo partly drawn) = < 1 µM

Give recorded EC50 with F508delCFTR (Homo sapiens, UniProt P13569, DEL508-508) for the following compound: COc1ncc(C(F)(F)F)cc1CN[C@H]1[C@H](C(C)(C)C)[C@@H](C(=O)O)N(C(=O)[C@@H]2CCC[C@@H](OC)C2)[C@H]1c1ccccc1
1 to 10 µM

Return EC50 measured with F508delCFTR (Homo sapiens, UniProt P13569, DEL508-508) given this compound: COc1ccc(C(C)(C)C)cc1CN[C@H]1[C@H](C(C)(C)C)[C@@H](C(=O)O)N(C(=O)C2CCCS(=O)(=O)C2)[C@H]1c1ccccc1 (stereo partly drawn)
1 to 10 µM

Query the reported EC50 for F508delCFTR (Homo sapiens, UniProt P13569, DEL508-508); item: COc1ccnc(CN[C@@H]2[C@@H](C(C)(C)C)[C@H](C(=O)O)N(C(=O)C3CCCCC3)[C@@H]2c2ccccc2)n1 (racemic)
> 10 µM

Request - read-out EC50 | tested on F508delCFTR (Homo sapiens, UniProt P13569, DEL508-508) | compound COc1ccc(C(C)(C)C)cc1CN[C@H]1[C@H](C(C)(C)C)[C@@H](C(=O)O)N(C(=O)OC(C)C)[C@H]1c1ccccc1F
1 to 10 µM

----------
# tested.system: F508delCFTR (Homo sapiens, UniProt P13569, DEL508-508)
# Construct: expressed in transfected cells; host or cells: CFBE41o- human lung-derived epithelial cells (CFBE4lo-F508delCFTR-HRP), doxycycline-inducible
# test.method.notes: Cell Surface Expression-Horse Radish Peroxidase (CSE-HRP) Assay;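 for Maximum % activity (without co-corrector): percent of the 2 µM on-plate positive control corrector response above DMSO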
# Assay type: cell-based
# particulars: without co-corrector; maximum at any tested concentration, normalized to on-plate positive control; read-out: Maximum % activity (without co-corrector)
# Description: Cell Surface Expression-Horse Radish Peroxidase (CSE-HRP) Assay The development was achieved by expressing the F508delCFTR mutation along with a horseradish peroxidase (HRP) in the fourth exofacial loop, and then measuring the HRP activity using luminescence readout from these cells, CFBE4lo-F508delCFTR-HRP, that were incubated overnight with the test corrector compounds, either without or with the co-corrector. […] The raw counts from the experiment were analyzed using Accelrys® Assay Explorer v3.3. […]
assay.readout: Emax

# Emax lookup, item COc1cc(C(F)(F)F)ccc1CN[C@H]1[C@H](C(C)(C)C)[C@@H](C(=O)O)N(C(=O)C2CCCCC2)[C@H]1c1ccccc1C [Example 88]
> 200%

Dear colleague, I am looking for the recorded Emax of the following molecule: COc1ccc(C(C)(C)C)cc1CN[C@H]1[C@H](C(C)(C)C)[C@@H](C(=O)O)N(C(=O)C2C3CCCC32)[C@H]1c1ccccc1 (some centres unmarked) [Example 46]
> 200%

Consider the molecule COc1nc(C(C)(C)C)ccc1CN[C@H]1[C@H](C(C)(C)C)[C@@H](C(=O)O)N(C(=O)C2Cc3ccccc3O2)[C@H]1c1ccccc1 (single isomer, unassigned) [Example I-181] and give its measured Emax.
< 100%

----------
This listing pairs compounds with measured EC50.
# tested.system: F508delCFTR (Homo sapiens, UniProt P13569, DEL508-508)
# Construct: expressed in transfected cells; host or cells: CFBE41o- human lung-derived epithelial cells (CFBE4lo-F508delCFTR-HRP), doxycycline-inducible
# test.method.notes: Cell Surface Expression-Horse Radish Peroxidase (CSE-HRP) Assay
# Type: cell-based
# particulars: CSE-HRP; with co-corrector (2 μM of 3-[(2R,4R)-4-({[1-(2,2-difluoro-1,3-benzodioxol-5-yl)cyclopropyl]carbonyl}amino)-7-methoxy-3,4-dihydro-2H-chromen-2-yl]benzoic acid); read-out: EC50 (with co-corrector)

COc1ncccc1CN[C@@H]1[C@@H](C(C)(C)C)[C@H](C(=O)O)N(C(=O)C2CCCCC2)[C@@H]1c1ccccc1 (racemic) [II-6] = 1000 to 10000 nM
COc1cc(C(F)(F)F)ccc1CN[C@H]1[C@H](C(C)(C)C)[C@@H](C(=O)O)N(C(=O)C2OC[C@@H]3CCC[C@H]23)[C@H]1c1ccccc1 (some centres unmarked) [II-241] = 1000 to 10000 nM
COc1cc(C(F)(F)F)ccc1CN[C@H]1[C@H](C(C)(C)C)[C@@H](C(=O)O)N(C(=O)c2ccccc2)[C@H]1c1ccccc1 [II-152] = 1000 to 10000 nM
COc1ncc(Br)cc1CN[C@H]1[C@H](C(C)(C)C)[C@@H](C(=O)O)N(C(=O)C2CCCCC2)[C@H]1c1ccccc1F [II-263] = 1000 to 10000 nM

Now turn to the next compound.
What EC50 value was documented for this compound, COc1nc2ccccc2cc1CN[C@H]1[C@H](C(C)(C)C)[C@@H](C(=O)O)N(C(=O)C2CCCCC2)[C@H]1c1ccccc1 [II-244] ?
< 1000 nM

Where these numbers come from: patent US20180099931A1
